- Subject Of Test: rNav1.2 sodium channels (Rattus norvegicus, UniProt P04775)
- Construct: host or cells: HEK-293
- Sequence (P04775 whole entry): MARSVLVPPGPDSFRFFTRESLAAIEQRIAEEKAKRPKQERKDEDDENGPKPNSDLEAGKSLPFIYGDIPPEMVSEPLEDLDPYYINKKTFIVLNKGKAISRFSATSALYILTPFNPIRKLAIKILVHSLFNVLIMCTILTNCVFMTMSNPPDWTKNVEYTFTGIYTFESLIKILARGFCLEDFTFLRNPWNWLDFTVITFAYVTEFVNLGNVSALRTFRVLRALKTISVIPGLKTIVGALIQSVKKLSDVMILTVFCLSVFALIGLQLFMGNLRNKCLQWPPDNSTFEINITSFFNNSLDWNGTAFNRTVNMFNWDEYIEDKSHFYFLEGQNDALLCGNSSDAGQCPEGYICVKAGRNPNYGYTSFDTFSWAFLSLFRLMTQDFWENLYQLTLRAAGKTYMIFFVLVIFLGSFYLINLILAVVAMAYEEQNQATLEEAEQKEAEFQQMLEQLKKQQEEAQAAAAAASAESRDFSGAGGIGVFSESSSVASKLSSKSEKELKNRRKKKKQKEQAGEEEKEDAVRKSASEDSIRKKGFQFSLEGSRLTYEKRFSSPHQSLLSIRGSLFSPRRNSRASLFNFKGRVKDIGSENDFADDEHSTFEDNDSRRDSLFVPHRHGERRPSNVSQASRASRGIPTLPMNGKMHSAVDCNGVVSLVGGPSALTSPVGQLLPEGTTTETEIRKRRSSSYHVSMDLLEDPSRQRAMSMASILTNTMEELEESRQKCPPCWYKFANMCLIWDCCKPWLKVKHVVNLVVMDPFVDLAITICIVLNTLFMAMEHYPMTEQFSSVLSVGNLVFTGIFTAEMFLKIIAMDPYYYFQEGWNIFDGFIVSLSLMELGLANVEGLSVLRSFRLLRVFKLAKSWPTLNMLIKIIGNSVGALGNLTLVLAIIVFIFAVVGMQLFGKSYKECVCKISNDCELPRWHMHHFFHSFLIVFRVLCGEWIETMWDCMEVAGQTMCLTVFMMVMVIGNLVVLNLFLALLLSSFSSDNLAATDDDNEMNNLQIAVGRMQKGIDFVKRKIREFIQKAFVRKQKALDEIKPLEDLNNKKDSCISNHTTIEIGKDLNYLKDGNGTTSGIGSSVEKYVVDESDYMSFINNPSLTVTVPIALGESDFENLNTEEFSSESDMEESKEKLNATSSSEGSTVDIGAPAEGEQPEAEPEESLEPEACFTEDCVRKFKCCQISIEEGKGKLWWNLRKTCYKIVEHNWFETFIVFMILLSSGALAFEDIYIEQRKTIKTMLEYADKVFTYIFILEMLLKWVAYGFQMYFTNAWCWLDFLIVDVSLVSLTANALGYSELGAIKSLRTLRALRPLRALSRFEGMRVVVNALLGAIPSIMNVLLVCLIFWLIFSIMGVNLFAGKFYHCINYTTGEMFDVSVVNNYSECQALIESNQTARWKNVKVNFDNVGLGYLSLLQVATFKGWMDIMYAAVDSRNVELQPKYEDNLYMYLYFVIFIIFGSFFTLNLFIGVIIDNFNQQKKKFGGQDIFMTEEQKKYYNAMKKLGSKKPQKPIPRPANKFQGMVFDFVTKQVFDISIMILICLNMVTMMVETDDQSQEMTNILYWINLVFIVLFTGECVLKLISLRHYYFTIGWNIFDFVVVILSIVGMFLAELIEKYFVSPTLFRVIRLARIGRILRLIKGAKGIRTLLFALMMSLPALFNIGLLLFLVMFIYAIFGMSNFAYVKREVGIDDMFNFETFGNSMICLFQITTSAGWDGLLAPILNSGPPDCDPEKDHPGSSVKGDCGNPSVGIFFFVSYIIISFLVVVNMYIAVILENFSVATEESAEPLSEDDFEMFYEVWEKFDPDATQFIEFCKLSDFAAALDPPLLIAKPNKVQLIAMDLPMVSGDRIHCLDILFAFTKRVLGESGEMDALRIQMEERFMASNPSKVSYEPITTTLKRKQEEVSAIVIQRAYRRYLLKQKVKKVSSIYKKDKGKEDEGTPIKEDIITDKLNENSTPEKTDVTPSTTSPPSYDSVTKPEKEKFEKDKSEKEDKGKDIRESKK
- Method: QPatch automated patch clamp, inhibition of sodium currents evoked by 5 Hz trains at three extracellular pH values
- Type: cell-based
- Experimental Parameters: Ward's method on 18 variables of affinity, reversibility, onset
Experimental Readout: class of pH-dependence pattern (cluster analysis)

>  <Compound>
NC(=O)N1c2ccccc2C=Cc2ccccc21 [carbamazepine]

>  <Subject Of Test>
rNav1.2 sodium channels (Rattus norvegicus, UniProt P04775)

>  <Experimental Value>
Class A

$$$$
>  <Compound>
O=C(NCC1CCCCN1)c1cc(OCC(F)(F)F)ccc1OCC(F)(F)F (stereo not drawn) [flecainide]

>  <Subject Of Test>
rNav1.2 sodium channels (Rattus norvegicus, UniProt P04775)

>  <Experimental Value>
Class B

$$$$
>  <Compound>
COc1ccccc1OCC(O)CN1CCN(CC(=O)Nc2c(C)cccc2C)CC1 (stereo not drawn) [ranolazine]

>  <Subject Of Test>
rNav1.2 sodium channels (Rattus norvegicus, UniProt P04775)

>  <Experimental Value>
Class A

$$$$
>  <Compound>
CN(C)CCCN1c2ccccc2Sc2ccc(Cl)cc21 [chlorpromazine]

>  <Subject Of Test>
rNav1.2 sodium channels (Rattus norvegicus, UniProt P04775)

>  <Experimental Value>
Class G

$$$$
>  <Compound>
CCN(CC)CC(=O)Nc1c(C)cccc1C [lidocaine]

>  <Subject Of Test>
rNav1.2 sodium channels (Rattus norvegicus, UniProt P04775)

>  <Experimental Value>
Class A

$$$$
>  <Compound>
CCCCN1CCCCC1C(=O)Nc1c(C)cccc1C (stereo not drawn) [bupivacaine]

>  <Subject Of Test>
rNav1.2 sodium channels (Rattus norvegicus, UniProt P04775)

>  <Experimental Value>
Class B

$$$$
>  <Compound>
Nc1nc2ccc(OC(F)(F)F)cc2s1 [riluzole]

>  <Subject Of Test>
rNav1.2 sodium channels (Rattus norvegicus, UniProt P04775)

>  <Experimental Value>
Class G

$$$$

# next compound below
Noted for Nc1c(Br)cc(Br)cc1CN[C@H]1CC[C@H](O)CC1 [ambroxol] : its class of pH-dependence pattern (cluster analysis) reads Class G

* * *

- Subject Of Test: rNav1.2 sodium channels (Rattus norvegicus)
- Construct: host or cells: HEK-293
- Method: QPatch automated patch clamp, inhibition of sodium currents evoked by 5 Hz trains at three extracellular pH values
- Format: cell-based
- Experimental Parameters: pH 6.0/8.6; cc 30 mM
Returns one of MET or NOT MET; MET when Ratio Tau Onset is >= 0.9.

Examples from the recorded data:
>  <Compound>
CN(C)CCC=C1c2ccccc2CCc2ccccc21

>  <Assigned Class>
MET

$$$$
>  <Compound>
CCc1nn(CCCN2CCN(c3cccc(Cl)c3)CC2)c(=O)n1CCOc1ccccc1

>  <Assigned Class>
NOT MET

$$$$
>  <Compound>
Cc1nc2sccn2c(=O)c1CCN1CCC(=C(c2ccc(F)cc2)c2ccc(F)cc2)CC1

>  <Assigned Class>
NOT MET

$$$$

// inclusive: Ratio Tau Onset at least 0.9? input: CN(C)CCCN1c2ccccc2Sc2ccc(Cl)cc21 NOT MET

// inclusive: Ratio Tau Onset at least 0.9? input: Fc1ccc([C@@H]2CCNC[C@H]2COc2ccc3c(c2)OCO3)cc1 MET

// inclusive: Ratio Tau Onset at least 0.9? input: CC12CC3CC(C)(C1)CC(N)(C3)C2 [memantine] NOT MET
